MEASUREMENT_DESCRIPTION: folding stability dG unfold (combined trypsin and chymotrypsin); higher = more stable
Kind request: treat 4 kJ/mol as inclusive, so folding stability dG unfold at 4 kJ/mol or higher is y, anything lower is n.

Observe how each entry below is paired with its result.
{"columns": ["SEQUENCE_RECORD", "GROUP_LABEL"],
 "data": [
  ["SAGGSAGGSAEPPEPEVVAVTVEITEEDGELTITVTNEDTGEKYTFTLKNVEVKPGDTLLIRSAGGSAGGSA [r18_89_TrROS_Hall]", "y"],
  ["SASDEDQKKQQEQQKPPIKPPEFPVKLNGKKIEKIRFNPPTDRIWFEWPNGKEIPIDPGMSLEEILKKISAG [r14_59_TrROS]", "n"],
  ["SAGGSAMKIKPGETVTIKVKNKETGEWFEAKIVKVDEEKGEIEIEVEVNGKKYTFTIPAEDIEIVESAGGSA [r15_381_TrROS_Hall]", "y"],
  ["SSATVTFTVELPDDSVIVSVRIDAEEYDPGPPWVRVTIEVEIYDKNGELLATLRFEFLLPREVLEELRKSSA [r9_234_TrMRF]", "y"],
  ["GSAGVMFGSREDIEALAAALGPDVAPTDVTYDPSGYYYYTIPLPDGTPTSLTIPPDKYSPEEVAALARRLTS [r1_279_JUSTAS]", "n"]
]}

Q. Decide: folding stability dG unfold of SAGGSAGGSAGKKKVLMTVDEIEKKLGKKIKPGSLVLVEVENGKVKKIEIFDVKKKPKKKSAGGSAGGSAGG [r11_616_TrROS_Hall] >= 4 kJ/mol?
A. y

Q. Decide: folding stability dG unfold of SAGGSAGGSAYELVIVGTPELALKLAKEFAEKNPESVANLKIEKITAALPVPFLSPDGIPESAGGSAGGSAG [r3_89_TrMRF] >= 4 kJ/mol?
A. n

Q. Decide: folding stability dG unfold of SMKPGDTVIVKIEIEKKVDGKTVKKTIEKEIKIKPGETVEIELKGLPKGAKVRVEIFNADGKLIEEKELPSA [r9_478_TrROS_Hall] >= 4 kJ/mol?
A. y
